- protocol-details: Particle size distribution, dry dispersion laser diffraction (Sympatec)
- Type: physicochemical
- protocol-conditions: Before jet-milling (unmicronized)
measure-name: Dv (90) (µm)
Express the result in µm but write the number alone.

In: Entry CC[C@H]1[C@@H](O)[C@@H]2[C@H](CC[C@]3(C)[C@@H]([C@H](C)CCC(=O)O)CC[C@@H]23)[C@@]2(C)CC[C@@H](O)C[C@@H]12 [OCA Example # 1] has what Dv (90)?
Out: 162

In: Another compound: CC[C@H]1[C@@H](O)[C@@H]2[C@H](CC[C@]3(C)[C@@H]([C@H](C)CCC(=O)O)CC[C@@H]23)[C@@]2(C)CC[C@@H](O)C[C@@H]12 [OCA Example # 3]
Out: 221

In: Also, CC[C@H]1[C@@H](O)[C@@H]2[C@H](CC[C@]3(C)[C@@H]([C@H](C)CCC(=O)O)CC[C@@H]23)[C@@]2(C)CC[C@@H](O)C[C@@H]12 [OCA Example # 2] please.
Out: 231

====

- protocol-details: Equilibrium solubility of OCA in various buffers at 37° C.
- Format: physicochemical
- protocol-conditions: aqueous buffer, 37 °C, pH 10, aqueous buffer, thermodynamic from solid, pH 10.0 Alkaline Borate
measure-name: solubility (µg/mL)
Expressed in µg/mL, but write only the number.

In: # get_value(readout='solubility', item= `CC[C@H]1[C@@H](O)[C@@H]2[C@H](CC[C@]3(C)[C@@H]([C@H](C)CCC(=O)O)CC[C@@H]23)[C@@]2(C)CC[C@@H](O)C[C@@H]12` )
Out: 56

====

- protocol-details: Particle size distribution, dry dispersion laser diffraction (Sympatec)
- Format: physicochemical
- protocol-conditions: in µm (unit assumed)
D50 below 10 gives label 0; D50 at or above it gives label 1.

In: Threshold query (D50 >= 10) on CC[C@H]1[C@@H](O)[C@@H]2[C@H](CC[C@]3(C)[C@@H]([C@H](C)CCC(=O)O)CC[C@@H]23)[C@@]2(C)CC[C@@H](O)C[C@@H]12 [Jet mill, classifier speed 2000 rpm]
Out: label 1

In: Subsequent entry: CC[C@H]1[C@@H](O)[C@@H]2[C@H](CC[C@]3(C)[C@@H]([C@H](C)CCC(=O)O)CC[C@@H]23)[C@@]2(C)CC[C@@H](O)C[C@@H]12 [Jet mill, classifier speed 4000 rpm]
Out: label 0

In: Let us now turn to CC[C@H]1[C@@H](O)[C@@H]2[C@H](CC[C@]3(C)[C@@H]([C@H](C)CCC(=O)O)CC[C@@H]23)[C@@]2(C)CC[C@@H](O)C[C@@H]12 [Jet mill, classifier speed 10000 rpm]
Out: label 0

In: Same question, CC[C@H]1[C@@H](O)[C@@H]2[C@H](CC[C@]3(C)[C@@H]([C@H](C)CCC(=O)O)CC[C@@H]23)[C@@]2(C)CC[C@@H](O)C[C@@H]12 [Comilled with 1.14 mm screen] this time
Out: label 1

In: Again, but for CC[C@H]1[C@@H](O)[C@@H]2[C@H](CC[C@]3(C)[C@@H]([C@H](C)CCC(=O)O)CC[C@@H]23)[C@@]2(C)CC[C@@H](O)C[C@@H]12 [Comilled with 0.46 mm screen]
Out: label 1

In: Next compound up: CC[C@H]1[C@@H](O)[C@@H]2[C@H](CC[C@]3(C)[C@@H]([C@H](C)CCC(=O)O)CC[C@@H]23)[C@@]2(C)CC[C@@H](O)C[C@@H]12 [Jet mill, classifier speed 5000 rpm]
Out: label 0

====

- protocol-details: Equilibrium solubility of OCA in various buffers at 37° C.
- Format: physicochemical
- protocol-conditions: aqueous buffer, 37 °C, pH 6.8, aqueous buffer, thermodynamic from solid, above pH 6.8
measure-name: solubility

In: Reported solubility, molecule `CC[C@H]1[C@@H](O)[C@@H]2[C@H](CC[C@]3(C)[C@@H]([C@H](C)CCC(=O)O)CC[C@@H]23)[C@@]2(C)CC[C@@H](O)C[C@@H]12` : ____
Out: > 10 µg/mL

====

- protocol-details: Particle size distribution, dry dispersion laser diffraction (Sympatec)
- Format: physicochemical
- protocol-conditions: Before jet-milling (unmicronized)
Hi there, I'd appreciate the recorded Dv (10) for every entry that follows.
Numbers only; they are read as µm.

In: If you can, please state the reported Dv (10) value of CC[C@H]1[C@@H](O)[C@@H]2[C@H](CC[C@]3(C)[C@@H]([C@H](C)CCC(=O)O)CC[C@@H]23)[C@@]2(C)CC[C@@H](O)C[C@@H]12 [OCA Example # 2] .
Out: 1.8

In: Also need CC[C@H]1[C@@H](O)[C@@H]2[C@H](CC[C@]3(C)[C@@H]([C@H](C)CCC(=O)O)CC[C@@H]23)[C@@]2(C)CC[C@@H](O)C[C@@H]12 [OCA Example # 3] , thanks.
Out: 5.3

In: How about CC[C@H]1[C@@H](O)[C@@H]2[C@H](CC[C@]3(C)[C@@H]([C@H](C)CCC(=O)O)CC[C@@H]23)[C@@]2(C)CC[C@@H](O)C[C@@H]12 [OCA Example # 1] ?
Out: 2.6

====

- protocol-details: Example 10: clinical pharmacology / pharmacokinetics of OCA
- Type: in vivo, human
- protocol-conditions: human, in vivo; read-out: volume of distribution
measure-name: Vd (L)
Just the number please, in L, no unit attached.

In: Suppose we examine the compound `CC[C@H]1[C@@H](O)[C@@H]2[C@H](CC[C@]3(C)[C@@H]([C@H](C)CCC(=O)O)CC[C@@H]23)[C@@]2(C)CC[C@@H](O)C[C@@H]12` ; what Vd value has been reported?
Out: 613

====

- protocol-details: Particle size distribution, dry dispersion laser diffraction (Sympatec)
- Format: physicochemical
measure-name: D84 (µm)
The reply should contain only the number, in µm.

In: I'd like to know its D84. The compound in question is CC[C@H]1[C@@H](O)[C@@H]2[C@H](CC[C@]3(C)[C@@H]([C@H](C)CCC(=O)O)CC[C@@H]23)[C@@]2(C)CC[C@@H](O)C[C@@H]12 [Jet mill, classifier speed 4000 rpm]
Out: 17

In: Next record, please: CC[C@H]1[C@@H](O)[C@@H]2[C@H](CC[C@]3(C)[C@@H]([C@H](C)CCC(=O)O)CC[C@@H]23)[C@@]2(C)CC[C@@H](O)C[C@@H]12 [Jet mill, classifier speed 5000 rpm]
Out: 15.2

In: Similarly, CC[C@H]1[C@@H](O)[C@@H]2[C@H](CC[C@]3(C)[C@@H]([C@H](C)CCC(=O)O)CC[C@@H]23)[C@@]2(C)CC[C@@H](O)C[C@@H]12 [Jet mill, classifier speed 10000 rpm] ?
Out: 4.7

In: Follow-up entry: CC[C@H]1[C@@H](O)[C@@H]2[C@H](CC[C@]3(C)[C@@H]([C@H](C)CCC(=O)O)CC[C@@H]23)[C@@]2(C)CC[C@@H](O)C[C@@H]12 [Jet mill, classifier speed 2000 rpm]
Out: 57.2

====

- protocol-details: Solubility of OCA in biologically relevant media at 37° C.
- Type: physicochemical
- protocol-conditions: physiologically relevant dissolution media, aqueous with cosolvent or surfactant or cyclodextrin; pH 6.8 with surfactant (polysorbate 80), 37° C.
measure-name: solubility (µg/mL)
Reply numerically in µg/mL, unit not repeated.

In: Tell me the measured solubility of `CC[C@H]1[C@@H](O)[C@@H]2[C@H](CC[C@]3(C)[C@@H]([C@H](C)CCC(=O)O)CC[C@@H]23)[C@@]2(C)CC[C@@H](O)C[C@@H]12` , please.
Out: 590

====

- protocol-details: Example 10: clinical pharmacology / pharmacokinetics of OCA
- Type: in vivo, human
- protocol-conditions: human, plasma; oral; read-out: effective half-life (converted)
measure-name: half-life

In: Name the recorded half-life for CC[C@H]1[C@@H](O)[C@@H]2[C@H](CC[C@]3(C)[C@@H]([C@H](C)CCC(=O)O)CC[C@@H]23)[C@@]2(C)CC[C@@H](O)C[C@@H]12 [OCA] .
Out: ~24 h

====

- protocol-details: pKa
- Type: physicochemical
measure-name: pKa
Respond numerically, and do not add a unit to the figure.

In: For the compound shown here, CC[C@H]1[C@@H](O)[C@@H]2[C@H](CC[C@]3(C)[C@@H]([C@H](C)CCC(=O)O)CC[C@@H]23)[C@@]2(C)CC[C@@H](O)C[C@@H]12 [OCA] , give the reported pKa.
Out: 4.82

====

- protocol-details: Equilibrium solubility of OCA in various buffers at 37° C.
- Assay type: physicochemical
- protocol-conditions: aqueous buffer, 37 °C, pH 6.8, aqueous buffer, thermodynamic from solid, pH 6.8 Phosphate (50 mM sodium phosphate dibasic)
measure-name: solubility

In: GET /values?readout=solubility&item= `CC[C@H]1[C@@H](O)[C@@H]2[C@H](CC[C@]3(C)[C@@H]([C@H](C)CCC(=O)O)CC[C@@H]23)[C@@]2(C)CC[C@@H](O)C[C@@H]12`
Out: 220 µg/mL
